Data origin, for the record: PubChem BioAssay (NCI)

test system: HOP-62 NSCLC; test: NCI tumour cell line growth inhibition, 48 h
parameter: GI50

QUERY: Note GI50 for the molecule shown: "O=C(/C(=C/c1ccc([N+](=O)[O-])cc1)SCc1ccc(Cl)cc1)c1ccc(F)cc1"
RESULT: 13.1 µM

QUERY: Note GI50 for the molecule shown: "COc1ccc2cc(C(=O)/C=C/c3ccc(N(C)C)cc3)ccc2c1"
RESULT: > 100 µM

QUERY: Note GI50 for the molecule shown: "C[C@]12CC[C@@H]3c4cc(OC(F)F)c(OS(N)(=O)=O)cc4CC[C@H]3[C@@H]1CC[C@@H]2OS(N)(=O)=O"
RESULT: 3.4 µM

QUERY: Note GI50 for the molecule shown: "O=C(Nc1ccc(-n2cc(-c3ccncc3)c(-c3ccc(O)c(Cl)c3)n2)cc1)Nc1ccc(Cl)c(C(F)(F)F)c1"
RESULT: 6.56 µM

QUERY: Note GI50 for the molecule shown: "CC(=O)Nc1c(I)c(NC(C)=O)c(I)c(C(=O)O)c1I"
RESULT: > 100 µM

QUERY: Note GI50 for the molecule shown: "Cc1cc(O)cc(C)c1/C=C/c1cncc(C(N)=O)c1"
RESULT: 2.8 µM

QUERY: Note GI50 for the molecule shown: "CCOC(=O)c1cc(C(=O)c2cc(OC)c(OC)c(OC)c2)n2c1ccc1ccccc12"
RESULT: 0.466 µM

QUERY: Note GI50 for the molecule shown: "CCCc1cc(=O)n2c(C(=O)Nc3cccc(C(=O)OCC)c3)c(C(=O)Nc3ccc(F)cc3)sc2n1"
RESULT: 3.54 µM

QUERY: Note GI50 for the molecule shown: "N#Cc1c(N)n2c(nc1=Nc1ccc(Cl)cc1)sc1cc(Cl)ccc12"
RESULT: 4.6 µM

QUERY: Note GI50 for the molecule shown: O=c1[nH]c(=O)c2cc3cc(C4CC(O)C(CO)O4)ccc3cc2[nH]1 (stereo not given)
RESULT: > 100 µM

* * *

test system: EKVX NSCLC; assay: NCI tumour cell line growth inhibition, 48 h
I'd be grateful if you could share measured TGI for these entries.

QUERY: Note TGI for the compound shown: "CC[C@@]1(O)C(=O)OCc2c1cc1n(c2=O)Cc2cc3cccc([N+](=O)[O-])c3nc2-1"
RESULT: > 100 µM

QUERY: Note TGI for the compound shown: CCOC(=O)C(N=C(c1ccccc1)c1ccccc1)N(C(=O)OC(C)(C)C)C(=O)OC(C)(C)C (stereo not drawn)
RESULT: > 100 µM

QUERY: Note TGI for the compound shown: N#Cc1cc([N+](=O)[O-])ccc1NC(=O)/C(=N\NC(=O)c1ccncc1)C(c1cnc2ccc([N+](=O)[O-])cc2n1)[N+](=O)[O-] (stereo not drawn)
RESULT: 25.1 µM

QUERY: Note TGI for the compound shown: "O=C1NC(=O)C(C(=O)C(=O)Nc2ccc(Cl)cc2Cl)C(=O)N1"
RESULT: > 100 µM

QUERY: Note TGI for the compound shown: "O=C(/C=C/c1ccc(C(F)(F)F)cc1)c1c([O-])on[n+]1-c1ccccc1"
RESULT: 5.83 µM

QUERY: Note TGI for the compound shown: "Cc1nc(N2N=C(c3ccc(Cl)cc3)CCC2=O)sc1[N+](=O)[O-]"
RESULT: > 100 µM

QUERY: Note TGI for the compound shown: COC(=O)C1=C(OC(=O)/C(=C/c2ccccc2)c2ccc(Cl)cc2)C(C(=O)OC)[C@@]2(O)[C@@H](C(=O)OC)[C@H](C)C[C@@H]1[C@@H]2C(=O)OC (stereo partly drawn)
RESULT: > 100 µM

QUERY: Note TGI for the compound shown: "O=C1C=CC(=O)c2c1ccc1c3ccccc3n(-c3ccccc3)c21"
RESULT: 28.7 µM

* * *

system: MCF7 breast; experiment: NCI tumour cell line growth inhibition, 48 h
parameter: log10 TGI (log10 of the value in µM)
Please note: log10 values; quantity TGI; unit µM.

QUERY: With MCF7 breast as the test system, provide measured log10 TGI for this compound: "Cn1ncc2c(Nc3cccc(Cl)c3)nc(Nc3cccc(Cl)c3)nc21"
RESULT: 1.51

QUERY: With MCF7 breast as the test system, provide measured log10 TGI for this compound: "CCSc1cc2c(cc1O)CC[C@@H]1[C@@H]2CC[C@]2(C)[C@@H](O)CC[C@@H]12"
RESULT: 1.44

QUERY: With MCF7 breast as the test system, provide measured log10 TGI for this compound: "Cc1ccc2c(c1)c(Sc1ccc(C(=O)NO)cc1)c1n2CN(C)CC1"
RESULT: 1.06

QUERY: With MCF7 breast as the test system, provide measured log10 TGI for this compound: "O=C(Nc1ccc(-n2cc(-c3ccncc3)c(-c3ccc(O)c(Cl)c3)n2)cc1)Nc1ccc(Cl)c(C(F)(F)F)c1"
RESULT: 1.13

QUERY: With MCF7 breast as the test system, provide measured log10 TGI for this compound: O=C([O][Hg][CH2]C1OCCOC1[CH2][Hg][O]C(=O)c1ccccc1)c1ccccc1 (centres undefined)
RESULT: 1.39

QUERY: With MCF7 breast as the test system, provide measured log10 TGI for this compound: N#C[Se]CCN1C(=O)C2C(C1=O)[C@H]1C=C[C@@H]2S1 (some centres undefined)
RESULT: 0.96

QUERY: With MCF7 breast as the test system, provide measured log10 TGI for this compound: "COc1ccc2c(O)c(/C=C3\N=Nc4ccccc43)oc2c1C[C@@H]1CCNC[C@H]1F"
RESULT: 1.29

QUERY: With MCF7 breast as the test system, provide measured log10 TGI for this compound: "CC/C(=C(/c1ccc(O)cc1)c1ccc(OCCN)cc1)c1ccccc1"
RESULT: 0.60

QUERY: With MCF7 breast as the test system, provide measured log10 TGI for this compound: "O=[N+]([O-])c1ccc(C2=Nn3c(nnc3-c3ccc(Cl)cc3)SC2)o1"
RESULT: 0.61

QUERY: With MCF7 breast as the test system, provide measured log10 TGI for this compound: "O=C(CCCN1CCC(Nc2ccccc2)(c2nnnn2C2CCCCC2)CC1)c1ccc(F)cc1"
RESULT: 0.76

QUERY: With MCF7 breast as the test system, provide measured log10 TGI for this compound: "O=[N+]([O-])c1ccc(Oc2c(Cl)cc(S(=O)(=O)/N=C(\NO)Nc3ccc(Cl)cc3)cc2Cl)c(Cl)c1"
RESULT: 1.53

QUERY: With MCF7 breast as the test system, provide measured log10 TGI for this compound: "N=C(N)SCc1c2ccccc2c(CSC(=N)N)c2ccccc12"
RESULT: 1.19

QUERY: With MCF7 breast as the test system, provide measured log10 TGI for this compound: CC(C)(C)[Si](C)(C)OCC1OC(n2cc(I)c(=O)[nH]c2=O)C(O[Si](C)(C)C(C)(C)C)C1O[Si](C)(C)C(C)(C)C (centres undefined)
RESULT: 1.47

QUERY: With MCF7 breast as the test system, provide measured log10 TGI for this compound: "COCCNc1ccc2c3c(cccc13)C(=O)N(CCN(C)C)C2=O"
RESULT: 1.37

QUERY: With MCF7 breast as the test system, provide measured log10 TGI for this compound: "O=C(/C(=C/c1ccc([N+](=O)[O-])cc1)SCc1ccc(Cl)cc1)c1ccc(F)cc1"
RESULT: 0.68

QUERY: With MCF7 breast as the test system, provide measured log10 TGI for this compound: "Cn1c(=O)c2c(nc3sc4c(n32)C(=O)c2c(O)ccc(O)c2C4=O)n(C)c1=O"
RESULT: 0.53

QUERY: With MCF7 breast as the test system, provide measured log10 TGI for this compound: Cc1ccc([N+](=O)[O-])cc1S(=O)(=O)Nc1ccc(C2=NOC(c3cccs3)C2)cc1 (centres undefined)
RESULT: 1.37

QUERY: With MCF7 breast as the test system, provide measured log10 TGI for this compound: "C=C1C(=O)O[C@H]2[C@H]1CC/C(C=Nc1c(N)cc(C(F)(F)F)cc1C(F)(F)F)=C\CC[C@@]1(C)O[C@@H]21"
RESULT: 0.37

QUERY: With MCF7 breast as the test system, provide measured log10 TGI for this compound: "COc1ccc(Nc2cc(C)nc(NCc3ccccc3)n2)cc1"
RESULT: 1.28

* * *

tested on: OVCAR-5 ovarian; assay: NCI tumour cell line growth inhibition, 48 h
I'd be grateful if you could share measured TGI for these entries.

QUERY: Note TGI for the compound shown: CC1(Br)CC2OC3(Br)C=CC(C)(O)C2(CC1=O)C3(C)C (stereo not given)
RESULT: > 100 µM

QUERY: Note TGI for the compound shown: "C[Si](C)(N[Si](C)(C)OCCc1ccccc1)OCCc1ccccc1"
RESULT: > 100 µM

QUERY: Note TGI for the compound shown: "CONC(C)=O"
RESULT: > 100 µM

QUERY: Note TGI for the compound shown: "[N-]=[N+]=Nc1c(Cl)c(Cl)nc2ccccc12"
RESULT: > 100 µM

QUERY: Note TGI for the compound shown: Nc1nc(Cl)cc(NCC(O)CO)n1 (stereo not given)
RESULT: > 100 µM

QUERY: Note TGI for the compound shown: NC(=O)/C(=N\NC(=O)C[n+]1ccccc1)C1NC(=O)NC1=O (stereo not given)
RESULT: > 100 µM

QUERY: Note TGI for the compound shown: "CCCc1cc(=O)n2c(C(=O)Nc3cccc(C(=O)OCC)c3)c(C(=O)Nc3ccc(F)cc3)sc2n1"
RESULT: > 140 µM

QUERY: Note TGI for the compound shown: CC(C)CC(=O)NC(C(=O)NC(C(=O)NC(CC(C)C)C(O)CC(=O)NC(C)C(=O)NC(CC(C)C)C(O)CC(=O)O)C(C)C)C(C)C (stereo not given)
RESULT: > 100 µM

QUERY: Note TGI for the compound shown: "COc1cccc(/C=N/NC(=O)c2ccccc2N2CCCC2)c1O"
RESULT: > 100 µM

QUERY: Note TGI for the compound shown: N#CC1=C(c2ccccc2)C(=C2Nc3ccccc3N2)C2S/C(=C\c3ccccc3)C(=O)N2C1=N (stereo not given)
RESULT: 5.84 µM
